Reference for the values: PubChem BioAssay

Tested on: XIP peptide (Xip251-270) binding
measurement.protocol: small-molecule binders of XIP peptide, primary screen, biochemical, small-molecule microarray, fluorescence 635/667 nm, 0.1 µg/mL protein (AID 1182)
test.settings: fluorescent protein binding, 635 nm, higher = more signal, called active from +8 up or from −8 down
Is composite z-score at least -0.04? Then fulfilled. If not, not fulfilled.

Query: Test whether the compound C=CC[C@@H]1C=C[C@H](Oc2ccc(C)cc2)[C@@H](COC(=O)NCc2cccc3ccccc23)O1 records composite z-score of -0.04 or higher.
Response: not fulfilled

Query: Decide: composite z-score of Cc1cc2c(nc1C)CCCCN2CC(O)CN1CCCc2nc(-c3ccc(Br)cc3)ccc21 (stereo unspecified) >= -0.04?
Response: fulfilled

Query: Determine whether this compound has composite z-score no lower than -0.04: COC(=O)[C@H](C)NC(=O)CCC1CC(OC(=O)NCc2cccc3ccccc23)CC2(CCCC(COC(=O)NCCOc3ccccc3)O2)O1 (stereo partly specified)
Response: fulfilled

Query: For this compound, is measured composite z-score -0.04 or higher? CCc1cc2c(nc1CC)CCN(CCC(C)=NOCC[C@@H]1C=C[C@H](OC(C)=O)[C@@H](COC(C)=O)O1)C2
Response: fulfilled

Query: Hello, I need to know if CCOC(=O)[C@H](CC(C)C)NC(=O)CCC1CC(OC(=O)NCc2ccc3c(c2)OCO3)CC2(CCCC(COC(=O)NCCOc3ccccc3)O2)O1 (stereo partly specified) has measured composite z-score not below -0.04. Thanks!
Response: fulfilled

Query: Test whether the compound CON=C(C)CCC(=O)OC[C@H]1O[C@H](C#Cc2ccccc2)C=C[C@@H]1Oc1ccc(C)cc1 records composite z-score of -0.04 or higher.
Response: fulfilled

Query: Test whether the compound COC(=O)[C@H](C)NC(=O)CCC1CC(OC(=O)NCc2cccc3ccccc23)CC2(CCCC(COC(=O)NCCc3ccccc3OC)O2)O1 (stereo partly specified) records composite z-score of -0.04 or higher.
Response: not fulfilled

Query: Test whether the compound CC(=O)OC[C@H]1O[C@H](C#CCCc2ccccc2)C=C[C@@H]1OC(C)=O records composite z-score of -0.04 or higher.
Response: fulfilled

Query: Decide: composite z-score of CCOC(=O)[C@H](Cc1ccccc1)NC(=O)CCC1CC(OC(=O)NCc2cccc3ccccc23)CC2(CCCC(COC(=O)NCCOc3ccccc3)O2)O1 (stereo partly specified) >= -0.04?
Response: not fulfilled

Query: Reported composite z-score reaches at least -0.04 for COC(=O)CC=C[C@@H](C)[C@@H](C=NOC[C@@H](C)[C@H](OCc1ccccc1)C(C)C)NS(=O)(=O)c1ccc(C)cc1 ?
Response: fulfilled

Query: Assess whether reported composite z-score for CC#CCOCCC=C1c2ccccc2[C@@H](OC)[C@@H]1C sits at -0.04 or higher.
Response: fulfilled

Query: // inclusive: composite z-score at least -0.04? input: CC(C)CN1CCc2nc(-c3ccccc3)c3c(c2C1)CO[C@@H](C)C3
Response: fulfilled

Query: Could you verify whether the entry CC(C)[C@H](NC(=O)OC(C)(C)C)[C@@H](O)CC(=O)C(C)(C)C shows composite z-score of no less than -0.04?
Response: not fulfilled

Query: Is it the case that CO[C@H]1C[C@@H]2C[C@H](O)CC(CC(=O)O[C@@H](C=CCC(C)C)C[C@@H]3CC[C@H](C)[C@@H](C1)O3)O2 has composite z-score reaching or exceeding -0.04?
Response: not fulfilled

Query: Item Cc1ccc(S(=O)(=O)N[C@@H]2COC(=O)CC=C[C@@H](C)[C@H](NS(=O)(=O)c3ccc(C)cc3)COC(=O)[C@H](C)NC(=O)CC=C[C@H]2C)cc1 with composite z-score of -0.04 or above?
Response: not fulfilled

###

Test system: Inhibin beta A chain (activin A)
measurement.protocol: INHBA (activin A) binders on microarrays, primary screen, biochemical, small-molecule microarray, 635 nm fluorescence scan (AID 1107);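 further: mouse activin A protein probed at 4.33 µg/mL on printed slides; score merges bound-protein fluorescence near 667 nm with spot signal-to-noise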
test.settings: small-molecule microarray binding, higher = more signal
Kindly supply the reported composite z-score values for the records listed here.
Lab note: jot down the number only; don't add units.

Query: Return reported composite z-score; argument: CCOC(=O)NN=C1C[C@@H](O)[C@@H](O)[C@@H]2[C@@H]3C(=O)N(c4ccc(F)cc4F)C(=O)[C@@H]3CC[C@H]12
Response: 0.0584

Query: Give the measured composite z-score of CCOC(=O)CCN1C(=O)[C@H]2[C@H]3[C@H](O)[C@H](O)CC(=NNC(=O)OCc4ccc(OC)cc4)[C@H]3CC[C@H]2C1=O .
Response: 0.747

Query: Fill blank: measured composite z-score of the compound CC(C)CON=C1C[C@@H](O)[C@@H](O)[C@@H]2[C@@H]3C(=O)N(Cc4ccccc4)C(=O)[C@@H]3CC[C@H]12 is ____.
Response: -0.204

Query: Given Cc1ccc2[nH]c3nc(CCCn4ccnc4-c4ccccc4)nnc3c2c1 , state its recorded composite z-score.
Response: -0.739

Query: Param item = COC(OC)[C@@H](C)[C@H](OC)[C@@H](C)[C@H](OC)c1ccccc1 ; retrieve measured composite z-score.
Response: 0.499

Query: // query composite z-score value for entry COc1ccc(COC(=O)NN=C2C[C@@H](O)[C@@H](O)[C@@H]3[C@@H]4C(=O)N(C[C@@H]5CCCO5)C(=O)[C@@H]4CC[C@H]23)cc1
Response: 0.229

Query: Item under review: C=CC[C@@H]1C=C[C@H](ON=CC[C@@H]2C=C[C@H](OC(C)=O)[C@@H](COC(C)=O)O2)[C@@H](CO)O1 . Reported composite z-score?
Response: 0.211

Query: Fill in: composite z-score of O=C1CCCC=C1C(O)c1ccc([N+](=O)[O-])cc1 (centres undefined) is ___
Response: 0.478

Query: Entry COC(=O)[C@H](C)NC(=O)CCC1CC(OC(=O)NCc2cccc3ccccc23)CC2(CCCC(COC(=O)NCCC(C)C)O2)O1 (some centres undefined) has what composite z-score?
Response: 0.199

Query: Tell me the measured composite z-score of CCCNC(=O)OC[C@H]1O[C@H](CCON=C[C@@H](C)[C@H](OCc2ccccc2)C(C)C)C=C[C@@H]1Oc1ccc(OC)cc1 , please.
Response: 0.33

Query: Fill in: composite z-score of COC(=O)CC=C[C@@H](C)[C@@H](C=NOC[C@@H](C)[C@H](OCc1ccccc1)C(C)C)NS(=O)(=O)c1ccc(C)cc1 is ___
Response: 0.168

Query: Quick one: composite z-score of C#CCCCON=C1C[C@@H](O)[C@@H](O)[C@@H]2[C@@H]3C(=O)N(C[C@@H]4CCCO4)C(=O)[C@@H]3CC[C@H]12 ?
Response: -0.0374

Query: So what's the measured composite z-score for this one? C=C(C)C(=O)OC[C@H]1CN2[C@@H](CC[C@@H](C)[C@@H]2c2ccc(Br)cc2)C(=O)O1
Response: 1.26

Query: # lookup: composite z-score of COc1ccc(COC(=O)NN=C2C[C@@H](O)[C@@H](O)[C@@H]3[C@@H]4C(=O)N(C5CCCCC5)C(=O)[C@@H]4CC[C@@H]23)cc1
Response: 0.105

Query: What value of measured composite z-score is listed for CC(C)[C@@H](OCc1ccccc1)[C@H](C)C=NOC[C@@H](O)[C@H]1O[C@@H]2OC(C)(C)O[C@@H]2[C@H]1O ?
Response: -0.519

Query: Item CCOC(=O)[C@H](CC(C)C)NC(=O)CCC1CC(OC(=O)NCc2ccc3c(c2)OCO3)CC2(CCCC(COC(=O)NCCC(C)C)O2)O1 (some centres undefined) has what recorded composite z-score?
Response: 0.16

Query: Query (compound): CC(=O)OC[C@H]1O[C@@H](ON=C(C)CCN2CCCCc3nc(C)c(C)cc32)[C@H](OC(C)=O)[C@@H](OC(C)=O)[C@@H]1OC(C)=O ; field requested: composite z-score
Response: 0.328

Query: composite z-score; subject: CC(C)CON=C1C[C@@H](O)[C@@H](O)[C@@H]2[C@@H]3C(=O)N(c4ccc(F)cc4F)C(=O)[C@@H]3CC[C@@H]12
Response: -0.287

Query: Recorded composite z-score of COC(=O)[C@H](C)NC(=O)CCC1CC(OC(=O)NCCc2ccc(F)cc2)CC2(CCCC(COC(=O)NCC3CCCCC3)O2)O1 (some centres undefined) , please.
Response: 0.0532

Query: What composite z-score value was documented for this compound, CCOC(=O)[C@H](CC(C)C)NC(=O)CCC1CC(OC(=O)NCc2ccc3c(c2)OCO3)CC2(CCCC(COC(=O)NCCc3ccccc3OC)O2)O1 (some centres undefined) ?
Response: -0.344

Query: Reported composite z-score, compound CCOC(=O)[C@H](Cc1ccccc1)NC(=O)CCC1CC(OC(=O)NCc2cccc3ccccc23)CC2(CCCC(COC(=O)NCCOc3ccccc3)O2)O1 (some centres undefined) : ____
Response: 0.011

Query: I am curious: what composite z-score value has been reported for CO[C@@H]1COC(=O)[C@H](CCSC)NC(=O)CC=C[C@@H](C)COC(=O)[C@@H]2CCCN2C(=O)CC=C[C@H]1C ?
Response: 0.4

Query: What composite z-score value was documented for this compound, CCCNC(=O)OC[C@H]1O[C@H](CCON=C2C[C@@H](O)[C@@H](O)[C@@H]3[C@@H]4C(=O)N(CC)C(=O)[C@@H]4CC[C@@H]23)C=C[C@@H]1Oc1ccc(OC)cc1 ?
Response: 0.157

Query: Fill blank: measured composite z-score of the compound CC(C)(C)N1C(=O)[C@H]2[C@H]3[C@H](O)[C@H](O)CC(=NNC(=O)OCc4ccccc4)[C@@H]3CC[C@H]2C1=O is ____.
Response: -0.337

Query: Request the reported composite z-score associated with COC(=O)[C@H](C)NC(=O)CCC1CC(OC(=O)NCc2cccc3ccccc23)CC2(CCCC(COC(=O)NCCCN3CCCC3=O)O2)O1 (some centres undefined)
Response: -0.503

Query: Field request: composite z-score | item: CC(CCN1CCCCc2nc(C)c(C)cc21)=NO[C@H](C)c1cn([C@@H]2COC[C@H]2O)nn1
Response: 1.21

Query: Quick check: composite z-score of C[C@H]1CC[C@@H](C(=O)O)N[C@@H]1c1cccc(N2CCCC2=O)c1 ?
Response: 0.292

Query: Consider the compound CC(C)[C@H](NC(=O)OC(C)(C)C)[C@@H](O)CC(=O)C(C)(C)C and give its measured composite z-score.
Response: -0.0828

Query: Can you look up the measured composite z-score of CCOC(=O)[C@H](Cc1ccccc1)NC(=O)CCC1CC(OC(=O)NCc2ccc3c(c2)OCO3)CC2(CCCC(COC(=O)NCCOC)O2)O1 (some centres undefined) for me?
Response: -0.169
